Molecular target: T1, ATHB17Δ113-W183F (Arabidopsis thaliana, UniProt Q8S9N6 SEQ:1-162)
T1 chain: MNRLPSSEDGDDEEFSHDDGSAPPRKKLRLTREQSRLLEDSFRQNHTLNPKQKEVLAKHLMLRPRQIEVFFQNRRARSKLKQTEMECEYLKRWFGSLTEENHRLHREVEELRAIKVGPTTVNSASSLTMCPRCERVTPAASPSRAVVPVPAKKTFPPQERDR
Experiment: SPR; asterisked in table; text says 11 uM, significantly reduced but not completely suppressed
Conditions: chain copies: 2 (homodimer, inferred)
Text: HD-Zip I and II proteins bind to similar cis elements (CAAT(N)ATTG) under in vitro conditions (Sessa et al., EMBO J 12:3507-3517, 1993); Meijer et al., Mol Gen Genet 263:12-21, 2000); Frank et al., Plant J Cell Molec Biol 15:413-421, 1998); Deng et al., Plant Mol Biol 49:601-610, 2002). […]
property.label: pKd
Keep it numeric: pKd is minus log10 of the concentration in mol/L.

Prompt: Please give measured pKd of the following entry: Class II oligo (BS2) (dsDNA) DNA 1: CAGACAATCATTGCGGC DNA 2: GCCGCAATGATTGTCTG
Response: 4.96
